Test: Anti-HCMV cytopathogenicity test: cytostatic effect on NHDF cells
Type: cell-based
Settings: human, human prepuce fibroblasts (NHDF cells), 6 days incubation, visual assessment
Structures can show the parent of a compound that is named as a salt.
measured.quantity: CC50 at 6 days

{"compound": "COc1cccc(N2CCN(C3=Nc4cnccc4C(CC(=O)O)N3c3cccc(C(F)(F)F)c3)CC2)c1 (stereo not drawn) [Example 4, hydrochloride]", "reported.value": "94 µM"}
{"compound": "COc1ccc(C(F)(F)F)cc1N1C(N2CCN(c3ccc(F)cc3)CC2)=Nc2ccncc2C1CC(=O)O (stereo not drawn)", "reported.value": "94 µM"}

compound COc1ccc(C)cc1N1C(N2CCN(c3ccc(F)cc3)CC2)=Nc2ccncc2C1CC(=O)O (stereo not drawn) , CC50 at 6 days observed: 250 µM
